Molecular target: GST-tagged truncated LRRK2 (Homo sapiens (Human))
Test: LRRK2 Lantha Screen kinase assay
Details: geometric mean of 2-5 determinations unless otherwise indicated (a: >=6 determinations; b: single determination); read-out: LRRK2 WT IC50
pIC50: −log10 of the molar value.
Readout: pIC50

COc1ccc(F)c(Cl)c1-c1c[nH]c2ncnc(N3CCOCC3)c12 [Example 193]: 7.33

I = CSc1cccc(-c2c[nH]c3ncnc(N4CCOCC4)c23)c1 [Example 102]
II = N#Cc1cccc(-c2c[nH]c3ncnc(N4CCOC(c5noc(C6CC6)n5)C4)c23)c1 (centres unmarked) [Example 135]
III = COc1cc(F)cc(-c2c[nH]c3ncnc(N4CCOCC4)c23)c1 [Example 85]
IV = Cc1cnc(Cl)c(-c2c[nH]c3ncnc(N4CCC[C@H](C)C4)c23)c1 [Example 59]
Incoming: Descending sort on pIC50 required. The reply should contain the labels ordered as requested.
Outgoing: III, II, IV, I

----------
Biological target: GST-tagged truncated LRRK2 (Homo sapiens (Human), UniProt Q5S007)
Sequence (Q5S007 970-2527): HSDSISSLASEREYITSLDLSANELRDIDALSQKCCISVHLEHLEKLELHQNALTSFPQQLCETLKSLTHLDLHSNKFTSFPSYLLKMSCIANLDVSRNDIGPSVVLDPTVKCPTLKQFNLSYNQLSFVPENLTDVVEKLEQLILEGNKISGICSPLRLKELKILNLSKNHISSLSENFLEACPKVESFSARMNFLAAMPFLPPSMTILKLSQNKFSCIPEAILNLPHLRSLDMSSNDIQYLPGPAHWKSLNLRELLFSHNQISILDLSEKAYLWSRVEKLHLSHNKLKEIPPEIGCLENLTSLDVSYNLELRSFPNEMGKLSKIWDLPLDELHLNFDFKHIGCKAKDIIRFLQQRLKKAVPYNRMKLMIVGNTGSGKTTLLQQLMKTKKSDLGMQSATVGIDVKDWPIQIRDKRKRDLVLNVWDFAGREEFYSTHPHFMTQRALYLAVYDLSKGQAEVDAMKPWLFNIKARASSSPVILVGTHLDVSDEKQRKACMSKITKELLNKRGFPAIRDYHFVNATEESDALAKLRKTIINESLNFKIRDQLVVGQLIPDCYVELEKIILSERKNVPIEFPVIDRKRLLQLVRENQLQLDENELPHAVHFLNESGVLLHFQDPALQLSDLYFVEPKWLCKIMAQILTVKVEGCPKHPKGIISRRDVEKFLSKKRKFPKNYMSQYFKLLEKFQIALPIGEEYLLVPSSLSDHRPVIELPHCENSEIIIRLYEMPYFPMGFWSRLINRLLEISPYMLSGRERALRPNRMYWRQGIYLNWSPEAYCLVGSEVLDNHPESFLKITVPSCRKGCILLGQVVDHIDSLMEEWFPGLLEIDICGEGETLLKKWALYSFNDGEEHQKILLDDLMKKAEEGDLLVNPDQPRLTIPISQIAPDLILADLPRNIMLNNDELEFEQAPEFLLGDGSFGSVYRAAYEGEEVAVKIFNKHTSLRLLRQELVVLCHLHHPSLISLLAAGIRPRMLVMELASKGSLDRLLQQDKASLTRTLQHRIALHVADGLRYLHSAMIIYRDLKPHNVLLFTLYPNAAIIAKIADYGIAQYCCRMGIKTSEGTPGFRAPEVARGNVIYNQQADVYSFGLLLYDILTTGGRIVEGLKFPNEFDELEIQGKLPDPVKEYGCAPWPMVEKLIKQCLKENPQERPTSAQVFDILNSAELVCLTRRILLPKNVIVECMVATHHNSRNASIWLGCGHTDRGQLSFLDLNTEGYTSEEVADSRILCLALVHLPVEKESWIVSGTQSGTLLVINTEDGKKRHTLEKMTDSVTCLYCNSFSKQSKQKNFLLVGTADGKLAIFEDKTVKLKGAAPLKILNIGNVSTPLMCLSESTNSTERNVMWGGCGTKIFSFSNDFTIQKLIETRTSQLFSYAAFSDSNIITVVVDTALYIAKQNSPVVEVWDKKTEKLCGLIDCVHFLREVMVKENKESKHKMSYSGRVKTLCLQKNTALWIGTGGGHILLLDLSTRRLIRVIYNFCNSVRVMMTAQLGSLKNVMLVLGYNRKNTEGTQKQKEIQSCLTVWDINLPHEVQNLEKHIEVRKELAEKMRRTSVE
Experiment: LRRK2 Lantha Screen kinase assay
Conditions: geometric mean of 2-5 determinations unless otherwise indicated (a: >=6 determinations; b: single determination); read-out: LRRK2 WT IC50
Readout: IC50 (nM)

c1cncc(-c2c[nH]c3ncnc(N4CCOCC4)c23)c1: 35
N#Cc1cccc(-c2c[nH]c3ncnc(Nc4cn[nH]c4)c23)c1: 69
C[C@H]1CCCN(c2ncnc3[nH]cc(-c4cccc(C(=O)O)c4)c23)C1: 55

I = N#Cc1cccc(-c2c[nH]c3ncnc(N4CCC(O)CC4)c23)c1
II = C[C@H]1CCCN(c2ncnc3[nH]cc(-c4ccc(C(N)=O)cc4)c23)C1
Incoming: Returns: the argument ( I or II ) having the larger IC50. Answer format: the label of the selected item.
Outgoing: I

----------
Molecular target: mutant G2019S LRRK2 (Homo sapiens (Human), UniProt Q5S007, G2019S)
Sequence (Q5S007 970-2527 G2019S): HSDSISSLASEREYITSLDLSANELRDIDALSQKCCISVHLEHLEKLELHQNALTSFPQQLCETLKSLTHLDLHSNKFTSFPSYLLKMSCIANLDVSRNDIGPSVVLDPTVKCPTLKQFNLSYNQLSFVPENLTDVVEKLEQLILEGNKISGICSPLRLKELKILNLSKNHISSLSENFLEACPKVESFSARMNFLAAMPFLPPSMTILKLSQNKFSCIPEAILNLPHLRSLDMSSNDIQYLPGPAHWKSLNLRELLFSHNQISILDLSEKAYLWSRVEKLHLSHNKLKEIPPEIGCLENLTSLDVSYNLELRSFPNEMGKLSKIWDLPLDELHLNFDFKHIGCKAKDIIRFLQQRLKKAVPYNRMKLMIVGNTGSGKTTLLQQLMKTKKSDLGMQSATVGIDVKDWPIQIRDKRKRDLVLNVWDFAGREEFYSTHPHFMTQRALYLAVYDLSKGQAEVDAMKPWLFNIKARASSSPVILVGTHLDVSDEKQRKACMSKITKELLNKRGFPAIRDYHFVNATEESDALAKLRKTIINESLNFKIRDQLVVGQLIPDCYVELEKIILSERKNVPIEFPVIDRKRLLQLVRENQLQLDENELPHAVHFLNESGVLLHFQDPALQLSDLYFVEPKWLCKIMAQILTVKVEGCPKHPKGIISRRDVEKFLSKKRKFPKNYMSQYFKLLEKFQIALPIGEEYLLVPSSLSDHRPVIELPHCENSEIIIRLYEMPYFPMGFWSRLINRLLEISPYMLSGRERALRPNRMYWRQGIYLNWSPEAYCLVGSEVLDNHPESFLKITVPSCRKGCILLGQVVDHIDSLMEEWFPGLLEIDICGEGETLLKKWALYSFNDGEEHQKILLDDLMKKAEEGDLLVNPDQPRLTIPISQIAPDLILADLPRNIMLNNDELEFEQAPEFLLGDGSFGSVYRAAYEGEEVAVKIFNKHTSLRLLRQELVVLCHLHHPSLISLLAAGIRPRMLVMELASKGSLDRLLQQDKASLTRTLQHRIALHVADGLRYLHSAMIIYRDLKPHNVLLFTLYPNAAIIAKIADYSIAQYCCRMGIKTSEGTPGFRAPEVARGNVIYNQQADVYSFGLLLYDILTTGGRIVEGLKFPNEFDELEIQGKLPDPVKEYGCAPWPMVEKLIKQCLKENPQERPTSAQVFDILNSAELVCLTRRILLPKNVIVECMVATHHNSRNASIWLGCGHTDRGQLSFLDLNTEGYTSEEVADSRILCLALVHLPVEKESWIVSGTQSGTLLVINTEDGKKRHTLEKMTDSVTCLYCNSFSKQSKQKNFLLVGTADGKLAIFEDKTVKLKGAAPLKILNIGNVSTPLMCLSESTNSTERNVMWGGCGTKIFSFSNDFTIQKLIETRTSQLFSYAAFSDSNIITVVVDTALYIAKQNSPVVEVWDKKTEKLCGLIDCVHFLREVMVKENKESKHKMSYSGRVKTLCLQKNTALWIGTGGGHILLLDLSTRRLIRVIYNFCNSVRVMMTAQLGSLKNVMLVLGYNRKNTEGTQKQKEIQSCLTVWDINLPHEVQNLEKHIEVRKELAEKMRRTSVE
Assay: LRRK2 Lantha Screen kinase assay, mutant enzyme
Settings: geometric mean of 2-5 determinations unless otherwise indicated (a: >=6 determinations; b: single determination)
pIC50: −log10 of the molar value.
Readout: pIC50

Consider the reported pIC50 for these molecules:
Cc1cncc(-c2c[nH]c3ncnc(N4CCCC(O)C4)c23)c1 (stereo not shown) [Example 162]: 7.17
N#Cc1ccc(F)c(-c2c[nH]c3ncnc(N4CCOCC4)c23)c1 [Example 80]: 6.41

P = COCC1CCCN(c2ncnc3[nH]cc(-c4cccc(C#N)c4)c23)C1 (stereo not shown) [Example 27]
Q = c1cc(-c2ncon2)cc(-c2c[nH]c3ncnc(N4CCOCC4)c23)c1 [Example 201]
Incoming: Min pIC50? P | Q Answer format: the label of the selected item.
Outgoing: Q
(Q: 6.32, P: 6.66)

P = Cc1noc(C2CN(c3ncnc4[nH]cc(-c5cccc(C#N)c5F)c34)CCO2)n1 (stereo not shown) [Example 166]
Q = N#Cc1cccc(-c2c[nH]c3ncnc(N4CCC[C@@H](O)C4)c23)c1 [Example 155]
Incoming: Min pIC50? P | Q Answer format: the label of the selected item.
Outgoing: P

P = COc1ccc(C#N)cc1-c1c[nH]c2ncnc(N3CCC[C@H](C)C3)c12 [Example 66]
Q = N#Cc1cccc(-c2c[nH]c3ncnc(N4CCC(F)CC4)c23)c1F [Example 158]
R = Cc1cncc(-c2c[nH]c3ncnc(N4CCC[C@H](C)C4)c23)c1 [Example 52]
S = Cc1cncc(-c2c[nH]c3ncnc(N4CCOCC4)c23)c1 [Example 149]
T = N#Cc1cccc(-c2c[nH]c3ncnc(N4CCOC(c5ccno5)C4)c23)c1 (stereo not shown) [Example 219]
Incoming: Descending sort on pIC50 required. The reply should contain the labels ordered as requested.
Outgoing: R, S, P, Q, T
(R: 7.72, S: 7.52, P: 7.29, Q: 7.07, T: 6.63)

I = Cc1[nH]c2ncnc(N3CCOCC3)c2c1-c1cccc(C#N)c1 [Example 2]
II = OCc1cccc(-c2c[nH]c3ncnc(N4CCOCC4)c23)c1F [Example 89]
III = CC1CCCN(c2ncnc3[nH]cc(-c4cccc(C#N)c4)c23)C1 (single isomer, unassigned) [Example 41]
IV = N#Cc1cccc(-c2c[nH]c3ncnc(N4CCCC(O)C4)c23)c1 (stereo not shown) [Example 138]
V = Brc1cncc(-c2c[nH]c3ncnc(N4CCOCC4)c23)c1 [Example 105]
Incoming: Descending sort on pIC50 required. The reply should contain the labels ordered as requested.
Outgoing: V, IV, I, II, III
(V: 7.85, IV: 7.57, I: 7.37, II: 7.12, III: 6.76)
